# targetOrSystem: Aurora A (Homo sapiens, UniProt O14965)
# Sequence (O14965 whole entry): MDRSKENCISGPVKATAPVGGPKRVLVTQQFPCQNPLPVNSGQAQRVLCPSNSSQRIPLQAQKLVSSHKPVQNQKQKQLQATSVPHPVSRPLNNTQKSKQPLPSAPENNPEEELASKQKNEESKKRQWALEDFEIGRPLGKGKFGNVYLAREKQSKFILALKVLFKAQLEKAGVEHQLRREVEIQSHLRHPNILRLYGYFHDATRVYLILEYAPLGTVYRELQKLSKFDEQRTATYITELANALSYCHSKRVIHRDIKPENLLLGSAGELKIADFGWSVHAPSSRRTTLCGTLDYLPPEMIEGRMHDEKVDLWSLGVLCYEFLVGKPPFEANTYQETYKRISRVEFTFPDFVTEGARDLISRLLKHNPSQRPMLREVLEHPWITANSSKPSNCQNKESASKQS
# testMethodNotes: In vitro kinase assay, Aurora A
# cond: recombinant protein (Upstate)
endpointName: pIC50
Friendly reminder that pIC50 comes from taking -log10 of the concentration in mol/L.

Solved entries (count: 3):
{"columns": ["compound", "pIC50"],
 "data": [
  ["CC(C)(Nc1cccc(C(=O)NCCC(N)=O)c1)C(=O)Nc1nc2c(C(F)(F)F)cc3[nH]ncc3c2s1 [compound 101]", 6.93],
  ["CC(C)(Nc1ccc(Cl)c(C(=O)O)c1)C(=O)Nc1nc2c(C(F)(F)F)cc3[nH]ncc3c2s1 [compound 136]", 7.72],
  ["NC(=O)CC(Nc1cccc(O)c1)C(=O)Nc1nc2ccc3[nH]ncc3c2s1 (centres unmarked) [compound 109]", 6.44]
]}

Q) Request the reported pIC50 associated with CNC(=O)c1cc(NC(C)(C)C(=O)Nc2nc3c(C(F)(F)F)cc4[nH]ncc4c3s2)ccc1Cl [compound 55]
A) 6.73

Q) Please do the same for CC(C)(Nc1ccc(F)c(C(N)=O)c1)C(=O)Nc1nc2c(C(F)(F)F)cc3[nH]ncc3c2s1 [compound 138] as well.
A) 6.58

Q) Query CC(C)(Nc1ccc(Cl)c(OCC(O)CO)c1)C(=O)Nc1nc2c(C(F)(F)F)cc3[nH]ncc3c2s1 (centres unmarked) [compound 99] next
A) 6.85

Q) Moving on to O=C(CNc1cccc(O)c1)Nc1nc2ccc3[nH]ncc3c2s1 [compound 2]
A) 6.83

Q) Same thing, different compound: CCNC(=O)c1cc(NC(C)(C)C(=O)Nc2nc3c(C(F)(F)F)cc4[nH]ncc4c3s2)ccc1Cl [compound 60]
A) 6.79
